Assay: Plasma concentrations in guinea pig allergic asthma model
Assay type: in vivo
Conditions: oral, 60 mg/kg, 3 hours post dose, read-out: mean plasma Compound 1 concentration
Test Readout: concentration at 3 h (µM)
Field format: number, assumed µM, no unit text.

[in] I am curious: what concentration at 3 h value has been reported for COc1ccc(CC(=O)O)cc1Oc1ccc(NC(=O)C(C)(C)C)cc1CSC(C)(C)C ?
[out] 0.372

###

Assay: Phase I single ascending dose study in humans, pharmacokinetics
Assay type: in vivo, human
Settings: human, plasma; single oral 15 mg capsule, healthy humans, mean; read-out: t1/2 (converted)
Counter-ions that a name gives are not always drawn.
Test Readout: half-life (h)
Field format: number, assumed h, no unit text.

[in] I am curious: what half-life value has been reported for COc1ccc(CC(=O)O)cc1Oc1ccc(NC(=O)C(C)(C)C)cc1CSC(C)(C)C [Compound 2, sodium salt] ?
[out] 1.23
